target: Heat shock protein HSP90 (Homo sapiens, UniProt P07900+P08238); assay: Inhibition of Hsp90 protein as degradation of HER2 kinase in SKBr3 cells; type: functional, cell-based
RESULT TYPE: IC50 (µM)

See these solved cases before continuing.
COMPOUND: CCCCn1c(S(=O)(=O)c2cccc(OC)c2)nc2c(N)ncnc21
QUANTITATIVE READOUT: 125
//
COMPOUND: Nc1ncnc2[nH]c(Sc3cc(Cl)ccc3Cl)nc12
QUANTITATIVE READOUT: 122
//
COMPOUND: CCCCn1c(Sc2cc(OC)c(OC)c(OC)c2)nc2c(N)ncnc21
QUANTITATIVE READOUT: 88.5
//
COMPOUND: CCCCn1c([S+]([O-])c2cccc(OC)c2)nc2c(N)ncnc21 (centres undefined)
QUANTITATIVE READOUT: 57.2

a. C#CCCCn1c(Sc2cc(OC)c(OC)c(OC)c2)nc2c(N)ncnc21
b. C#CCCCn1c(Sc2cc(Cl)cc(Cl)c2)nc2c(N)ncnc21
c. C#CCCCn1c(Sc2ccc(Cl)cc2Cl)nc2c(N)ncnc21
d. C#CCCCn1c(Sc2cc(OC)c(OC)c(OC)c2I)nc2c(N)ncnc21
Hey, quick one: sort these by IC50, largest value first please. The response must list the labels following the requested ordering. c, d, b, a
(c: 355 µM, d: 100 µM, b: 60.5 µM, a: 22.3 µM)

* * *

biological target: Heat shock protein HSP 90-alpha (Homo sapiens); test: Effective concentration against heat shock protein HSP90-alpha in MDA-MB-468 cells; type: functional, cell-based
pEC50: −log10 of the molar value.
RESULT TYPE: pEC50

STRUCTURE SMILES STRING: C#CCCCn1c(Sc2cc(OC)c(OC)c(OC)c2)nc2c(N)ncnc21
pEC50: 5.55

1. C#CCCCn1c(Sc2cc(OC)c(OC)c(OC)c2)nc2c(N)nc(F)nc21
2. C#CCCCn1c(Cc2cc(OC)c(OC)c(OC)c2)nc2c(N)ncnc21
Given the two records 1 and 2 , choose the one whose pEC50 value is lower. To answer, give the label that identifies your chosen option. 2

* * *

target: Heat shock protein HSP 90-alpha (Mus musculus, UniProt P07901); experiment: Displacement of 5 nM GM-BODIPY from mouse heat shock protein HSP90-alpha
pEC50: −log10 of the molar value.
RESULT TYPE: pEC50

STRUCTURE SMILES STRING: C#CCCCn1c(Sc2ccccc2CO)nc2c(N)ncnc21
pEC50: 4.07

STRUCTURE SMILES STRING: C#CCCCn1c(Sc2ccc(OC)cc2)nc2c(N)ncnc21
pEC50: 4.72

STRUCTURE SMILES STRING: COc1cc(Sc2nc3c(N)ncnc3n2CCOC(C)C)cc(OC)c1OC
pEC50: 5.47

a. C#CCCCn1c(Sc2ccc(C(C)=O)cc2)nc2c(N)ncnc21
b. CCCCn1c(Sc2cccc(OC)c2)nc2c(N)ncnc21
c. C#CCCCn1c(Sc2cc(C)ccc2C)nc2c(N)ncnc21
d. C#CCCCn1c(Sc2cc3c(cc2Br)OCO3)nc2c(N)ncnc21
Which order do these items take when sorted by rising pEC50? List them. // respond by listing labels in the order requested c, b, a, d

a. C#CCCCn1c(Sc2ccc(OC)cc2OC)nc2c(N)ncnc21
b. C#CCCCn1c(Sc2ccc(Cl)cc2Cl)nc2c(N)ncnc21
Kindly identify which of a and b has the larger recorded pEC50 value. Kindly state the label of the option you pick. a
(a: 5.70, b: 4.43)
